Reported Growth Percent, OVCAR-8 is given for each of the following compounds.
- Tested on: OVCAR-8
- assay-comment: NCI 60-cell drug screen, Ovarian Cancer OVCAR-8
- Type: cell-based, human
- reported-conditions: 1.00E−5 Molar
property: Growth Percent, OVCAR-8 (%)

[[record]]
line_notation = "O=C1c2ccccc2C(=O)c2c1ccc1nc(S)[nH]c21"
tgt = "OVCAR-8"
reported_measurement = 139.75

[[record]]
line_notation = "CN(C)CCCSc1nc2ccc3c(c2[nH]1)C(=O)c1ccccc1C3=O"
tgt = "OVCAR-8"
reported_measurement = 61.89

[[record]]
line_notation = "O=C1c2ccccc2C(=O)c2c1ccc1nc3n(c21)CCS3"
tgt = "OVCAR-8"
reported_measurement = 75.40

[[record]]
line_notation = "O=C1c2ccccc2C(=O)c2c1ccc1nc(SCCN3CCCC3)[nH]c21"
tgt = "OVCAR-8"
reported_measurement = 49.38

[[record]]
line_notation = "CCSc1nc2ccc3c(c2[nH]1)C(=O)c1ccccc1C3=O"
tgt = "OVCAR-8"
reported_measurement = 96.82

[[record]]
line_notation = "CCCSc1nc2ccc3c(c2[nH]1)C(=O)c1ccccc1C3=O"
tgt = "OVCAR-8"
reported_measurement = 44.68

